protocol.details: chemical genetic growth profiling, strain panel (AID 1159580);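 note: tested at 20 µM; growth read once vehicle control cultures reached saturation at 30 °C; 1 = growth at the plate median or of vehicle wells; lower values mean less growth of the strain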
assay.context: S. cerevisiae deletion strains, growth OD, locus YDR162C, strain NBP2
The campaign covered roughly 5,500 compounds. About 2,000 (36%) were called active. Another 18% or so got no clear call; they are omitted. Cut-off read from the data, not from the text of the source: active = normalized growth mostly below about 0.91 (no sharp cut-off); inconclusive = no clear call, values can overlap the other calls; inactive = mostly above about 0.92. The list shows a part of the results.
// classify into 1 (yes) for active, 0 (no) for inactive

These recorded examples may help you get a feel for the data.
compound	label
CC[C@@]1(O)C[C@H](O)c2c(cc3c(c2O)C(=O)c2c(O)ccc(O)c2C3=O)[C@H]1C(=O)OC	1 (yes)
Oc1cc(O)c2c(c1)OC(c1cc(O)c(O)c(O)c1)C(O)C2c1c(O)cc(O)c2c1OC(c1cc(O)c(O)c(O)c1)C(O)C2c1c(O)cc(O)c2c1OC(c1cc(O)c(O)c(O)c1)C(O)C2 (stereo not given)	0 (no)
O=C1c2ccc(O)cc2O[C@H](c2cc(O)c(O)c(O)c2)[C@H]1O	0 (no)
C/C=C(\C)C(=O)O[C@H]1C[C@@H](OC(C)=O)[C@@]2(C(=O)OC)CO[C@@H]3C2[C@]12CO[C@](O)(C(=O)OC)[C@H]2[C@](C)(C12O[C@@]1(C)[C@H]1C[C@@H]2OC2OC=C[C@@]21O)[C@@H]3O (stereo not given in full)	0 (no)

Entry COc1ccc(-c2coc3cc(O)ccc3c2=O)cc1 : call = ?
0 (no)

For COC(=O)CC1C2(C)CC34OC5(C)OC6(C7/C(=C(/O)C(C)C)C(=O)OC(c8ccoc8)C7(C)C(OC(=O)C(C)C)C(OC)C6(O5)C13C)C(OC)C4(OC)C2OC(C)=O (stereo not given) , which call appears in the assay record?
0 (no)

# fetch the recorded call for COc1ccccc1-c1coc2cc(O)ccc2c1=O here
0 (no)

====

protocol.details: chemical genetic growth profiling, strain panel (AID 1159580);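 note: tested at 20 µM; growth read once vehicle control cultures reached saturation at 30 °C; 1 = growth at the plate median or of vehicle wells; lower values mean less growth of the strain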
assay.context: S. cerevisiae deletion strains, growth OD, locus YGR040W, strain KSS1, stronger effect = lower value
The campaign covered roughly 5,500 compounds. About 2,000 (36%) were called active. Roughly 18% stayed inconclusive and do not appear here. The list shows a part of the results.
normalized growth values by entry
Just the number, please, no unit after it.

Past entries and their recorded results:
> print(dat)
                                   compound    outcome.measure  observed
1              CC(=O)/C(C#N)=N\Nc1ccc(F)cc1  normalized growth     0.137
2  CCOC(=O)C1C(c2c(F)cccc2Cl)C(C(=O)OCC)C(O)(C(F)(F)F)NC1(O)C(F)(F)F (stereo unspecified)  normalized growth     0.994
3    O=C(/C=C/c1ccc2c(c1)OCO2)Nc1ccc(Br)cc1  normalized growth      0.95
4  N#C/C(=N/Nc1ccccc1)C(=O)c1ccccc1OC(F)(F)F  normalized growth     0.853
5  CC(C)(C)c1ccc(C(=N)SC(C(=O)C(F)(F)F)c2ccccc2)cc1 (stereo unspecified)  normalized growth     0.894

For the compound shown here, Cc1ccc(Nc2ccnc3cc(Cl)ccc23)cc1F , give the reported normalized growth.
0.945

Please report the recorded normalized growth for N/C(CCSc1ccc(Cl)cc1)=N/OC(=O)Nc1ccc(Cl)cc1 .
0.247

Quick check: normalized growth of COc1cccc(C2CCN(C(=O)c3cccc4ccccc34)CC2)c1 ?
0.904

May I ask what normalized growth has been recorded for CC(=O)c1ccc(Cl)c(NS(=O)(=O)c2cc(Cl)c(Cl)cc2Cl)c1 ?
0.805

Quick one: normalized growth of N#C/C(=N/Nc1ccc(F)cc1)C(=O)c1ccccc1 ?
0.693

Consider the compound CC(C)(C)c1ccc(N/N=C(\C#N)C(N)=O)cc1 and give its measured normalized growth.
0.108
